Exercise: for every item that follows, state its recorded IC50.
- tested.on: Farnesyl-protein transferase (FTase) from bovine brain (Bos taurus, UniProt P29702+P49355)
- Construct: Farnesyl-protein transferase (FTase) from bovine brain
- assay: In vitro inhibition of Ras Farnesyl Transferase
- particulars: Ras-CVLS 3.5 μM, [3H]FPP 0.25 μM, partially purified bovine brain FTase; read-out: IC50 (concentration of compound which gives 50% inhibition of FTase)
Numbers only, in nM.

Reference set, count: 3
>>> observed("CC[C@H](C)[C@H](NC[C@@H](NC[C@@H](N)CS)[C@@H](C)CC)C(=O)N[C@@H](CCO)C(=O)O")
12
>>> observed("CC[C@H](C)[C@H](NC[C@@H](N)CS)C(=O)N[C@H](C(=O)N[C@@H](CCCO)C(=O)O)[C@@H](C)CC")
24
>>> observed("CC[C@H](C)[C@H](NC[C@@H](N)CS)C(=O)N[C@H](C(=O)N[C@H]1CCCOC1=O)[C@@H](C)CC")
470

Task: Please give the measured IC50 for this compound: CC[C@H](C)[C@H](NC[C@@H](NC[C@@H](N)CS)[C@@H](C)CC)C(=O)N[C@H]1CCOC1=O
Output: 950
